species on record: Mus musculus; test: Percent clearance of Syphacaia obvelata from mouse after oral treatment of 0.47 mg/mouse/day; assay type: functional
Listed next: entries and their corresponding Parasite_Clearance.
Answer in %, number only, no unit symbol.

Qu. Recorded Parasite_Clearance for `Cl/C(=N\Nc1ccccc1)c1ccc(Cl)cc1Cl` , please?
Ans. 0

Qu. Recorded Parasite_Clearance for `Cl/C(=N\Nc1ccc(Cl)cc1)c1ccccc1` , please?
Ans. 80

Qu. Recorded Parasite_Clearance for `CC(C)c1ccc(/C(Cl)=N/Nc2ccccc2)cc1` , please?
Ans. 0

Qu. Recorded Parasite_Clearance for `Cc1ccccc1N/N=C(\Cl)c1ccccc1` , please?
Ans. 0
